# experimental_target: Ubiquitin-conjugating enzyme E2 N (Homo sapiens) (UniProt P61088)
# Sequence (P61088 whole entry, looked up): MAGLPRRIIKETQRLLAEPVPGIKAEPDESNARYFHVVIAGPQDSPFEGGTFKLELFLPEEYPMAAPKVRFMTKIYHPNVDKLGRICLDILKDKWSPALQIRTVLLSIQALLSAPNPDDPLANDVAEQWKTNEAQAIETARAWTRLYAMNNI
# assay_comment: potency of analogues against UBC13 chain formation – biochemical, TR-FRET, set 2, SAR follow-up (AID 588390)
# measurement_context: UBC13 polyubiquitination
Activity calls are given as the source filed them. The rule behind the calls is not given here.
Outcome codes: active, inactive

O=C(CN1CCC(n2c(C(F)(F)F)nc3cc(F)ccc32)CC1)Nc1ccc2c(c1)OCO2; inactive
Cc1ccc(C)c(N2CCN(CCCNC(=O)C3CCCN(c4ncnc5c4nc4n5CCCCC4)C3)CC2)c1 (stereo not given); active
O=C(C1CCN(c2ncnc3c2nc2n3CCCCC2)CC1)N1CCN(c2ccc(F)cc2)CC1; inactive
COc1ccc(OC)c(NC(=O)CN2CCC(n3cnc4cc(F)ccc43)CC2)c1; inactive
O=C(C1CCN(c2ncnc3c2nc2n3CCCCC2)CC1)N1CCN(c2ncccn2)CC1; inactive
Cc1nc2ccccc2n1C1CCN(CC(=O)Nc2ccccc2Oc2ccccc2)CC1; inactive
CC1(C)Cc2c(sc(NC(=O)C(=O)N3CCCC3)c2C(N)=O)CO1; active
CC1(C)Cc2c(sc(NC(=O)C(=O)NCC3CCCO3)c2C(N)=O)CO1 (stereo not given); active
COc1ccc(NC(=O)CN2CCC(n3c(C)nc4cc(F)ccc43)CC2)c(OC)c1; inactive
CC1(C)Cc2c(sc(NC(=O)C(=O)NCCN3CCOCC3)c2C(N)=O)CO1; active
